What phosphorylation enrichment was measured for each of the following?
- System: c-Src
- Test Summary: phosphorylation enrichment, bacterial display (enrichment ratio); higher = better substrate or ligand; peptides without Tyr show the background;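 note: 11-residue human phosphosite peptides and single-mutation variants displayed on the E. coli surface, counted by deep sequencing, each peptide's frequency after selection divided by its frequency in the unselected input library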;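 note: frequency after pTyr selection over input frequency; kinase dosed for 20-30% of maximal phosphorylation in three min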
One number for each entry.

// known answers, use as guide
[in] Reported phosphorylation enrichment for MFFSTYDRDND [FGB_Y408] : what is it?
[out] 0.589

[in] Reported phosphorylation enrichment for HVIKLYGACSQ [RET_Y791] : what is it?
[out] 0.713

[in] Reported phosphorylation enrichment for SYCYRYRCAAR [SUMF1_Y344] : what is it?
[out] 0.54

Can you give me phosphorylation enrichment for all of these, one by one?
1. KMTGRYEMFAR [UPB1_Y362_YF]
2. FRTPGYREVVI [TNS2_Y673_A670T_YF]
3. VTNHIYTWVDP [DFNB31_Y234]
4. ASGKFYAMKIL [AKT3_Y174_YF]

[out]
1. 0.451
2. 0.504
3. 3.2
4. 0.426

---

- Tested on: Fer (mouse)
- Test Summary: phosphorylation enrichment, bacterial display (enrichment ratio); higher = better substrate or ligand; peptides without Tyr show the background
What phosphorylation enrichment was measured for each of the following?

[in] Reported phosphorylation enrichment for DSYWSYCNAVA [SLC20A2_Y436_S434W] : what is it?
[out] 0.644

[in] Reported phosphorylation enrichment for EFNLMYDGAKE [IRF6_Y97_T100A] : what is it?
[out] 0.593

[in] Reported phosphorylation enrichment for EHEALYLEADL [CENPF_Y1920] : what is it?
[out] 1.2

[in] Reported phosphorylation enrichment for PSDPSYEDMRE [BMPR1A_Y467] : what is it?
[out] 1.26

[in] Reported phosphorylation enrichment for AMGPVYQAAAL [HYOU1_Y421_A419P] : what is it?
[out] 6.15

Can you give me phosphorylation enrichment for all of these, one by one?
1. ADIETYLLEKS [MYH7_Y266]
2. RIFDFYSARKT [STOX1_Y858_A863T_YF]
3. FETNVYVDKNL [PTCHD3_Y688_K685T]
4. LLTALYFISRG [KCNH2_Y780]
5. LGNFNYEQRGA [API5_Y497]
6. RGDCMYASLLG [AR_Y269_P271S]
7. MGSYNYLGFAW [SPTLC2_Y178_R183W]

[out]
1: 0.431; 2: 0.311; 3: 0.482; 4: 0.716; 5: 0.408; 6: 1.1; 7: 0.617

Can you give me phosphorylation enrichment for all of these, one by one?
1. NYNPNYCFAGK [ALK_Y1096_D1091N]
2. SSNLFYRWLTA [CNGA3_Y169_YF]
3. EDDIIYTQDFM [STK11_Y362_T367M]
4. GGQSVYHVNLH [HINT1_Y109_H112N]

[out]
1. 0.597
2. 0.493
3. 0.776
4. 0.337

Can you give me phosphorylation enrichment for all of these, one by one?
1. PSPMPYACCQM [FOXL2_Y215_S217C]
2. CEAIEYLESKQ [BTK_Y511_M509I]
3. IHFPPYTDWNQ [ALDH3B2_Y365_YF]
4. ATPKGYELDAS [OTC_Y223_P225L]
5. ERFSYYGMKAV [SLC15A2_Y61]
6. MLEAPYVDRNS [F10_Y384_V382A]

[out]
[0.831, 0.521, 1.04, 0.465, 0.386, 0.391]

Can you give me phosphorylation enrichment for all of these, one by one?
1. FCRHNYGAVES [HLA-DRB1_Y112_V114A_YF]
2. QEALEYFMKQM [PIK3CA_Y1038]
3. RHTRSYDFTEG [FGF7_Y56_M59T_YF]

[out]
1. 0.42
2. 0.584
3. 0.399

Can you give me phosphorylation enrichment for all of these, one by one?
1. NTQRPHYKGGG [TYROBP_Y111_Y111H]
2. LKTNWYNNGKD [DNMT3B_Y404_C403W]

[out]
[0.422, 0.644]

Can you give me phosphorylation enrichment for all of these, one by one?
1. IFHENYNAGTF [CFI_Y421_YF]
2. QRRLVYYERGA [RYR1_Y245_G248R]
3. FADIAYIFRHG [PAH_Y166_N167I_YF]
4. GVIKEYQIRQV [USH2A_Y3623]
5. IDPYTYTPFGS [CYP3A4_Y432_I431T]

[out]
1. 0.435
2. 0.226
3. 0.507
4. 0.353
5. 0.698

Can you give me phosphorylation enrichment for all of these, one by one?
1. PIAPVYAPSMV [ACAT1_Y331_A333P]
2. AELVPYFMEHH [PTPN11_Y80_Q79P_YF]
3. WSISFYPQVIM [CTNS_Y143]
4. EEGENYQKGER [CHGB_Y173]
5. AIIEEYLHLND [EIF4G1_Y1253]

[out]
[16.1, 0.515, 0.471, 0.518, 0.487]

Can you give me phosphorylation enrichment for all of these, one by one?
1. TDVSLYPSGGT [TENM4_Y399]
2. RIFDYYSARKA [STOX1_Y858]
3. RVGVDYEGRGC [PLOD1_Y675_G678R]

[out]
1: 0.535; 2: 0.7; 3: 0.51

The reported measurements were obtained from the supplement of paper PMC10065799.
